- Study system: T1, MBNL3 (human, UniProt Q9NUK0 1-257)
- T1 sequence: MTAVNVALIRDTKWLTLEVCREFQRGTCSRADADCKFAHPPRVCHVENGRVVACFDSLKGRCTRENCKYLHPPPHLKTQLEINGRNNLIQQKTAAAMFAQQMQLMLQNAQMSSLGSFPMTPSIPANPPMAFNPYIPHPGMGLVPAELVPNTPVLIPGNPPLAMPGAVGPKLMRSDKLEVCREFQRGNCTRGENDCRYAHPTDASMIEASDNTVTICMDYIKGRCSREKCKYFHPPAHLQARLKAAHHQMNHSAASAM
- Experiment notes: filter binding
pKd: −log10 of the molar value.
Measurement label: pKd

Could you share which pKd value was measured for (CUG)20 (structured_RNA) RNA: CUGCUGCUGCUGCUGCUGCUGCUGCUGCUGCUGCUGCUGCUGCUGCUGCUGCUGCUGCUG ? ~8.11
